Below, each entry is listed with its recorded activity, negative = toxicity.
Experiment: qHTS for induction of synthetic lethality in tumor cells producing 2HG: qHTS for the HT-1080-IDH1KD cell line;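 on activity, negative = toxicity: 0% = DMSO wells and -100% = cell-free medium wells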
Settings: HT-1080 IDH1 knockdown viability, ATP luminescence, 48 h; series mostly up to 46.1 µM
Screen size: about 360,000 compounds; about 7,500 (2.1%) were called active. Not shown: some 8% with an inconclusive outcome. This is one part of a sample in which actives are shown more often than they occur.
ENDPOINT: activity, negative = toxicity

{"columns": ["STRUCTURE STRING", "RECORDED VALUE"],
 "data": [
  ["COC(=O)c1cc(OC)ccc1-c1ccc(OC)cc1", "-0.423% [at 9.24 µM] (inactive)"],
  ["c1csc(CN2CCN(Cc3cccs3)C2c2cccs2)c1", "-1.16% [at 9.24 µM] (inactive)"],
  ["CSc1ccccc1-c1nnc(-c2ccc(Cl)cc2)o1", "-1.6% [at 9.24 µM] (inactive)"],
  ["CCOc1ccc(OCc2ccc(C(=O)Nc3cccc(C)n3)o2)cc1", "2.75% [at 9.24 µM] (inactive)"],
  ["Cn1c(COc2ccc(Cl)cc2)nc2ccccc2c1=O", "4.13% [at 9.24 µM] (inactive)"]
]}

* * *

Test: qHTS for induction of synthetic lethality in tumor cells producing 2HG: qHTS for the HT-1080-IDH1KD cell line; further: potency means the concentration at half of the fitted maximal effect
Conditions: HT-1080 IDH1 knockdown viability, ATP luminescence, 48 h; series mostly up to 46.1 µM
Hit rate of the full screen: of about 360,000 compounds, about 7,500 (2.1%) were called active. About 8% were inconclusive and are not listed. The full list was thinned out, with actives kept by preference.

{"columns": ["COMPOUND", "Potency"],
 "data": [
  ["Cn1cccc1/C=N/NC(=O)c1ccc(OC(F)(F)C(F)F)cc1", "inactive"],
  ["COc1ccc(C(=NN)c2ccc(OC)cc2)cc1", "inactive"],
  ["CC1(C(=O)NS(=O)(=O)c2ccc(C#N)cc2)CCN1C(=O)c1ccc(C2CCCCC2)cc1 (stereo unspecified)", "inactive"],
  ["COc1ccc(/C=C/C(=O)Nc2ccc(C34CC5CC(CC(O)(C5)C3)C4)cc2)cc1OC", "2.59 µM (active)"],
  ["COc1ccc(C(C#N)=C2C=CC(=NO)c3ccccc32)cc1", "0.517 µM (active)"],
  ["Cn1nccc1NC(=O)Nc1ccc(OC(F)(F)F)cc1", "inactive"],
  ["COc1ccc(C(=O)NCC2CCCO2)cc1S(=O)(=O)NCc1ccc(Cl)cc1 (stereo unspecified)", "inactive"],
  ["O=C(COC(=O)COc1cc(Cl)c(Cl)cc1Cl)NC1CC1", "inactive"],
  ["COc1ccc(Br)cc1/C=N/Nc1ccc(Cl)c(C(=O)O)c1", "inactive"],
  ["Cc1csc(SCC(=O)Nc2ccc(C)c(S(=O)(=O)N(C)C)c2)n1", "inactive"],
  ["COc1ccc(-c2ccc(CN3C(C(C)C)C(=O)N(Cc4cn(CC5CCCCC5)nn4)CCS3(=O)=O)cc2)cn1 (stereo unspecified)", "inactive"],
  ["O=C(O)C1=C(C(=O)O)C2CCC1C2", "inactive"],
  ["O=C(Cn1c(NCCO)nc2ccccc21)c1ccc(Cl)cc1Cl", "20.6 µM (active)"],
  ["O=C(Nc1ccccc1)c1ccccc1Br", "inactive"],
  ["Cc1ccc(S(=O)(=O)N2C[C@H]3C(=O)C[C@@H](c4cccc5ccccc45)N(S(=O)(=O)c4ccc(C)cc4)[C@H]3C[C@H]2c2ccc(Cl)cc2)cc1", "inactive"],
  ["COc1cc2nc(N3CCCN(C)CC3)nc(NC3CC3)c2cc1OC", "inactive"],
  ["CC1CN(C(=O)c2cccc(NS(=O)(=O)c3ccc(Br)cc3)c2)CC(C)O1 (stereo unspecified)", "inactive"],
  ["Cc1ccc(-c2ccc(CN3C(C)C(=O)N(Cc4cn(CCC5OCCCO5)nn4)CCS3(=O)=O)cc2)cc1 (stereo unspecified)", "inactive"],
  ["C[C@H](CO)N1C[C@H](C)[C@H](CN(C)C(=O)Nc2ccc3c(c2)OCO3)Oc2ncc(Br)cc2C1=O", "inactive"],
  ["O=c1[nH]c2cccnc2n(CCNc2ncc(C(F)(F)F)cc2Cl)c1=O", "inactive"],
  ["COc1cccc(/C=N/Nc2ncc(C(F)(F)F)cc2Cl)c1O", "9.2 µM (active)"]
]}

* * *

Test: qHTS for induction of synthetic lethality in tumor cells producing 2HG: qHTS for the HT-1080-IDH1KD cell line
Settings: HT-1080 IDH1 knockdown viability, ATP luminescence, 48 h; series mostly up to 46.1 µM
Excerpt: Unbiased genomic sequencing for 22 glioma genomes found recurrent mutation of IDH1 on chromosome 2q33, a gene encoding the cytosolic isoform of IIDH1 associated with the tri-carboxylic acid cycle (TCA) that catalyzes the oxidative decarboxylation of isocitrate, yielding alpha-ketoglutarate and CO2 via NADP+ to NADPH conversion. […] Concentration-response curves were fitted to the signals arising from the resulting luminescence. […]
Hit rate of the full screen: of about 360,000 compounds, about 7,500 (2.1%) were called active. About 8% were inconclusive and are not listed. Calls come from the whole dose curve; as a rule, active = well fitted cell-killing curve with a large enough effect; inconclusive = small, poorly fitted or top-dose-only effect, or effect the other way, or another doubt; inactive = no such curve, though single readings can be large or run the other way. This excerpt belongs to a sample that is enriched for actives.
Outcome codes: 1 (yes) = active, 0 (no) = inactive

{"columns": ["COMPOUND", "LABEL CLASS"],
 "data": [
  ["CC1(C(=O)NCc2ccc3c(c2)OCO3)CCN1C(=O)Cc1cccc2ccccc12 (stereo unspecified)", "0 (no)"],
  ["CCCCCCCCN1C(=O)[C@H](CC(=O)NCC23CC4CC(CC(C4)C2)C3)C[C@@]2(C(=O)OC)CCCCC=C12", "0 (no)"],
  ["CC1Cc2[nH][nH]c(=O)c2C(C2CCCC2)O1 (stereo unspecified)", "0 (no)"],
  ["CN1CCn2cnc(C(=O)NCC(=O)OC(C)(C)C)c2C1=O", "0 (no)"],
  ["CN1c2ccc(C=O)c3c(C=O)ccc(c23)N(C)C1(C)C", "1 (yes)"],
  ["CCN1CCN(c2ccc([N+](=O)[O-])cc2C(=O)c2ccc(Cl)cc2)CC1", "1 (yes)"],
  ["Cc1ccccc1S(=O)(=O)NC(=O)C1(C)CCN1C(=O)C1(c2ccccc2)CCCC1 (stereo unspecified)", "0 (no)"],
  ["CCOC(=O)C(C(=O)c1ccccc1)C(c1ccccc1)c1nccc2ccccc12 (stereo unspecified)", "0 (no)"],
  ["O=C(Nc1ccc(Cl)cc1)Nc1nnc(/C=C/c2ccccc2)s1", "0 (no)"],
  ["CCC(=O)c1ccc(N2CCN(C(=O)c3cc([N+](=O)[O-])ccc3F)CC2)c(F)c1", "0 (no)"],
  ["C[C@@H]1CN([C@@H](C)CO)S(=O)(=O)c2ccc(-c3ccc(C(=O)N(C)C)cc3)cc2O[C@@H]1CN(C)Cc1ccccc1C(=O)O", "0 (no)"],
  ["O=C(CSc1ccccc1)Nc1nnc(/C=C/c2ccccc2)s1", "1 (yes)"],
  ["Cc1ccc(Cl)cc1NC(=S)N(CCN(C)C)Cc1cccs1", "0 (no)"],
  ["CCOCc1nnc(NC(=O)CSc2ccc(C)cc2)s1", "0 (no)"],
  ["O=C(Nc1cccc(Cl)c1)c1cc([N+](=O)[O-])ccc1N1CCN(CCO)CC1", "0 (no)"],
  ["Cc1cc(Cl)ccc1-c1nc(NCCN(C)C)nc2ccsc12", "1 (yes)"],
  ["CCc1nc2c(OCC(=O)C(C)(C)C)cccn2c1N(C)C(=O)c1ccccc1F", "0 (no)"],
  ["O=C(COC(=O)/C=C/c1ccc(Cl)cc1)NC1CCS(=O)(=O)C1 (stereo unspecified)", "0 (no)"],
  ["CC1CN(C(=O)CCC(=O)NCCCN2CCC(Cc3ccccc3)CC2)c2cc(Cl)ccc2O1 (stereo unspecified)", "1 (yes)"],
  ["O=C(NCCN1CCOCC1)c1ccc2c(c1)N(Cc1cccc(Cl)c1)C(=O)c1ccccc1S2(=O)=O", "0 (no)"],
  ["CCOc1ccc(NS(=O)(=O)c2ccc(C(=O)NCC3CCCO3)cc2)cc1 (stereo unspecified)", "0 (no)"]
]}

* * *

Test: qHTS for induction of synthetic lethality in tumor cells producing 2HG: qHTS for the HT-1080-IDH1KD cell line
Details: HT-1080 IDH1 knockdown viability, ATP luminescence, 48 h; series mostly up to 46.1 µM
In all, about 360,000 compounds went through this assay and about 7,500 (2.1%) were called active. About 8% were inconclusive and are not listed. Calls come from the whole dose curve; as a rule, active = well fitted cell-killing curve with a large enough effect; inconclusive = small, poorly fitted or top-dose-only effect, or effect the other way, or another doubt; inactive = no such curve, though single readings can be large or run the other way. The entries come from a sample that favours actives as a whole.
Outcome codes: active, inactive

{"columns": ["COMPOUND", "LABEL CLASS"],
 "data": [
  ["CC1(c2ccccc2)NC(=O)N(CC(=O)Nc2cc(Cl)ccc2N2CCOCC2)C1=O (stereo unspecified)", "inactive"],
  ["COc1ccc(CC(=O)N/N=C/c2cc([N+](=O)[O-])cc(Br)c2O)cc1", "inactive"],
  ["Cc1cccc(C(=O)Nc2ccc(C(=O)N/N=C/c3cccc(C)n3)cc2)c1", "inactive"],
  ["CO[C@@H]1CN(C)C(=O)c2cc(NC(=O)Nc3cc(F)ccc3F)ccc2OC[C@H](C)N(C(=O)c2ccccn2)C[C@@H]1C", "inactive"],
  ["Cc1ccccc1NC(=O)CSc1nc2ccc(Nc3nc(N4CCOCC4)nc(N4CCOCC4)n3)cc2s1", "inactive"],
  ["O=C(Cc1ccc(-c2ccccc2)cc1)NC(c1ccccc1)c1ccccc1", "inactive"],
  ["CCC1(C)Cc2c(sc3[nH]c(=S)n(Cc4ccccc4)c(=O)c23)CO1 (stereo unspecified)", "active"],
  ["CCOC(=O)/C=C/C(=O)OCC(=O)NC(c1ccccc1)c1ccccc1", "active"],
  ["C[C@@H]1CC2=C(C(=O)OC(C)(C)O2)[C@@H](C2CC2)O1", "inactive"],
  ["COc1ccc(/C=C2\\SC(=S)N(CCC(=O)N3CCOCC3)C2=O)cc1OC", "inactive"],
  ["Cc1cc(C(=O)N/N=C/c2cc([N+](=O)[O-])cc(C)c2O)n[nH]1", "active"],
  ["COc1ccc(C(=O)NN(C)c2nc(-c3ccccc3)cc(C)c2S(C)(=O)=O)cc1", "inactive"],
  ["COc1ccc(-c2nnc(SC(=O)N3c4ccccc4Sc4ccccc43)o2)cc1", "active"],
  ["Oc1c(Cl)cc(Cl)c(Cl)c1Cc1c(O)c(Cl)cc(Cl)c1Cl", "active"],
  ["CCn1c(SCC(=O)Nc2ccc3c(c2)OCCO3)nnc1-c1ccncc1", "inactive"],
  ["O=C(CSc1nnc(-c2ccccn2)n1-c1ccccc1)Nc1ccc2c(c1)OCO2", "active"],
  ["Cn1c(=O)[nH]c(=O)c2c1[nH]c(=S)n2Cc1ccccc1", "inactive"],
  ["COc1cccc(NC(=O)C2(C)CCN2C(=O)CCC2CCCC2)c1 (stereo unspecified)", "inactive"],
  ["COc1ccc(-c2nnc(SC(C)C(=O)NC3CC3)o2)cc1 (stereo unspecified)", "inactive"],
  ["Cn1c(CC(=O)NNC(=O)c2ccccc2F)nc2ccccc21", "inactive"],
  ["CC(NC(=O)c1ccccc1F)c1cccc2ccccc12 (stereo unspecified)", "inactive"]
]}
